# Target Or Test System: human sodium channels Nav 1.7 (Homo sapiens (Human))
# Assay Comment: Automated whole-cell voltage-clamp (ScreenPatch 384P), Nav 1.7 sodium current, Protocol 2
# Assay type: cell-based
# Protocol Conditions: Protocol 2 (holding −100 mV, inactivation step −40 mV 8 s, 0.05 Hz); CHO cells expressing human Nav 1.7; read-out: Nav1.7 IC50
Measure: pIC50
# pIC50 is unitless: minus log10 of the molar concentration; print number only

// solved cases for pIC50 follow
> print(dat)
                                   compound  measure  value.observed
1  CCCOc1ccc(-c2cccc(C(=O)N/N=C/c3cc(OC)cc(OC)c3)n2)cc1 [Compound 15]    pIC50            6.57
2  COc1cc(/C=N/NC(=O)c2nccc(-c3ccc(Cl)cc3)n2)cc(OC)c1 [Compound 60]    pIC50            5.29
3  CCCOc1ccc(-c2ccnc(C(=O)N/N=C/c3cc(OC)cc(OC)c3)n2)cc1 [Compound 66]    pIC50            6.24

Ask: What pIC50 value was documented for this compound, COc1cc(/C=N/NC(=O)c2cccc(-c3ccc(OC(F)(F)F)cc3)n2)cc(OC)c1 [Compound 40] ?
Result: 6.91

Ask: What pIC50 value was documented for this compound, COc1ccc(-c2ccnc(C(=O)N/N=C/c3cc(OC)cc(OC)c3)n2)cc1 [Compound 65] ?
Result: 5.19

Ask: What pIC50 value was documented for this compound, CCCCOc1ccc(-c2cccc(C(=O)N/N=C/c3cc(OC)cc(OC)c3)n2)cc1 [Compound 41] ?
Result: 5.92

Ask: What pIC50 value was documented for this compound, COc1cc(/C=N/NC(=O)c2nccc(-c3ccc(OC(C)C)cc3)n2)cc(OC)c1 [Compound 62] ?
Result: 6.52

====

# Target Or Test System: human sodium channels Nav 1.7 (Homo sapiens (Human), UniProt Q15858)
# Sequence (Q15858 whole entry): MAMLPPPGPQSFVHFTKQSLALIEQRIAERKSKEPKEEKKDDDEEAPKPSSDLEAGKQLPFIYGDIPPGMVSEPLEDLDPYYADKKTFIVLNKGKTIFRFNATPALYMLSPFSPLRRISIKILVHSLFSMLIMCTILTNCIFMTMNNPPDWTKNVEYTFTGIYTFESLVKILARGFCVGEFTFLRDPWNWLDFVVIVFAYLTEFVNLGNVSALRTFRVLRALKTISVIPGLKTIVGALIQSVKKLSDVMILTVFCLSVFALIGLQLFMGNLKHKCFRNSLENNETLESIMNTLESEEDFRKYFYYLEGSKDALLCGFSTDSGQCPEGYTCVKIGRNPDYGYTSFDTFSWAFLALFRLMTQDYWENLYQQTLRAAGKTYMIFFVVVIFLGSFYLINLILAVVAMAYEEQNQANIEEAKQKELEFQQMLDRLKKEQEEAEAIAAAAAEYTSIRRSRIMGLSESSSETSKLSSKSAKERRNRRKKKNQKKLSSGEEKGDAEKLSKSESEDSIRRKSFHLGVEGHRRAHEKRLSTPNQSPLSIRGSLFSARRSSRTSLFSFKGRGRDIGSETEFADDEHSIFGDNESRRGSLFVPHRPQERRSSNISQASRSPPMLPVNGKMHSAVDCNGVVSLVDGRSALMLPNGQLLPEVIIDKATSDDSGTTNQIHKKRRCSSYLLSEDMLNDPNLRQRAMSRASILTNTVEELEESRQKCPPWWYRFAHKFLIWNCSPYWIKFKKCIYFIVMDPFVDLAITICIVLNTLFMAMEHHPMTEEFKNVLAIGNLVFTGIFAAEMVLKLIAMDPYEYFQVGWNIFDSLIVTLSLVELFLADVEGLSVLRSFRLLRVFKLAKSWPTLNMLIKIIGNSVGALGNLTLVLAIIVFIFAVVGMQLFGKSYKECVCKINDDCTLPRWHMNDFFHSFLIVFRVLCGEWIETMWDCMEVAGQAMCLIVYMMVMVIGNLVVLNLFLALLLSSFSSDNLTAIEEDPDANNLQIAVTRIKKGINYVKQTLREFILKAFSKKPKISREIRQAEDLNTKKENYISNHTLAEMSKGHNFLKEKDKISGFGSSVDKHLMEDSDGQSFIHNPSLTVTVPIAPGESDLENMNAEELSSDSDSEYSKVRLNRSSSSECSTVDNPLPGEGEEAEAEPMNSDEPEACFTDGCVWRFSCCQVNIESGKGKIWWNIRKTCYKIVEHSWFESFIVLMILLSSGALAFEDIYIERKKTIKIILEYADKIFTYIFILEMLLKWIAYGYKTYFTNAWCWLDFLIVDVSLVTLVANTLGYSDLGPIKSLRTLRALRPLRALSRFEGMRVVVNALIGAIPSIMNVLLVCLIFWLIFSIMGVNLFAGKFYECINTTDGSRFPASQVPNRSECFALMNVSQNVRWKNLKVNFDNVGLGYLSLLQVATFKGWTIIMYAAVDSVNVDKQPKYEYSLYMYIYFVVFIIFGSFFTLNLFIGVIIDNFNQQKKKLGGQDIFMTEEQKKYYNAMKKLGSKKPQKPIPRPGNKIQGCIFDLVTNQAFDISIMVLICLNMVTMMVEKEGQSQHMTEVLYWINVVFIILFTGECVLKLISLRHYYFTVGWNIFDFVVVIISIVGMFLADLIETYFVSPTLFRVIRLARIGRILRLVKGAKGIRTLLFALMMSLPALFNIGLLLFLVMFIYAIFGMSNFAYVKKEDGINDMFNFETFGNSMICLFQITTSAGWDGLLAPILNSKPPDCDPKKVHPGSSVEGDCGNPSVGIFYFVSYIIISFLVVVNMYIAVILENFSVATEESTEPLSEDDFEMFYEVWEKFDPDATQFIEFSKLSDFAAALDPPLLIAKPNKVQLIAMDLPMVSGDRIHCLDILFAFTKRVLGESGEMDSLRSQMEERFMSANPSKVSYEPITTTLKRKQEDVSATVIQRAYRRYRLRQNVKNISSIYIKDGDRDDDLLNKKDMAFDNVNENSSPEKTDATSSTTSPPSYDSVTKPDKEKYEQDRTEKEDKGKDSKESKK
# Assay Comment: Automated whole-cell voltage-clamp (ScreenPatch 384P), Nav 1.7 sodium current, Protocol 1
# Assay type: cell-based
# Protocol Conditions: Protocol 1 (holding −90 mV, 0.1 Hz); CHO cells expressing human Nav 1.7; room temperature; read-out: Nav1.7 IC50
pIC50: −log10 of the molar value.
Measure: pIC50

Ask: What pIC50 value was documented for this compound, `O=C(N/N=C/c1cccs1)c1cccc(-c2ccc(Cl)cc2)n1` ?
Result: 4.92

Ask: What pIC50 value was documented for this compound, `COc1ccc(-c2nccc(C(=O)N/N=C/c3cc(OC)cc(OC)c3)n2)cc1` ?
Result: < 5.00

Ask: What pIC50 value was documented for this compound, `CCCOc1ccc(-c2nccc(C(=O)N/N=C/c3cc(OC)cc(OC)c3)n2)cc1` ?
Result: < 5.00

Ask: What pIC50 value was documented for this compound, `CCOc1ccc(-c2ccc(C(=O)N/N=C/c3cccs3)o2)cc1` ?
Result: < 4.52

Ask: What pIC50 value was documented for this compound, `CCOc1ccc(-c2cccc(C(=O)N(C)/N=C/c3cc(OC)cc(OC)c3)n2)cc1` ?
Result: < 5.00

Ask: What pIC50 value was documented for this compound, `CCOc1ccc(-c2cccc(C(=O)N/N=C/c3ccccc3F)n2)cc1` ?
Result: 5.98

Ask: What pIC50 value was documented for this compound, `COc1ccc(-c2cncc(C(=O)N/N=C/c3cc(OC)cc(OC)c3)c2)cc1` ?
Result: < 5.00

Ask: What pIC50 value was documented for this compound, `CCOc1ccc(-c2cccc(C(=O)N/N=C/c3c(F)cccc3Cl)n2)cc1` ?
Result: < 5.00

Ask: What pIC50 value was documented for this compound, `COc1cc(/C=N/NC(=O)c2cc(-c3ccc(Cl)cc3)ccn2)cc(OC)c1` ?
Result: < 5.00

Ask: What pIC50 value was documented for this compound, `CCOc1ccc(-c2cc(C(=O)N/N=C/c3cc(OC)cc(OC)c3)ccn2)cc1` ?
Result: < 5.00

Ask: What pIC50 value was documented for this compound, `CCOc1ccc(-c2cccc(C(=O)N/N=C/c3ccccc3OC)n2)cc1` ?
Result: 5.15

Ask: What pIC50 value was documented for this compound, `COc1cc(/C=N/NC(=O)c2cccc(-c3ccc(OC(C)C)cc3)n2)cc(OC)c1` ?
Result: 5.24

Ask: What pIC50 value was documented for this compound, `COc1cc(/C=N/NC(=O)c2ccnc(-c3ccc(OC(C)C)cc3)c2)cc(OC)c1` ?
Result: < 5.00

Ask: What pIC50 value was documented for this compound, `CCCOc1ccc(-c2cncc(C(=O)N/N=C/c3cc(OC)cc(OC)c3)c2)cc1` ?
Result: 5.46

Ask: What pIC50 value was documented for this compound, `COc1cc(/C=N/NC(=O)c2ccnc(-c3ccc(Cl)cc3)n2)cc(OC)c1` ?
Result: < 5.00

Ask: What pIC50 value was documented for this compound, `COc1cc(/C=N/NC(=O)c2cncc(-c3ccc(OC4CCCC4)cc3)c2)cc(OC)c1` ?
Result: < 5.00

Ask: What pIC50 value was documented for this compound, `CCOc1ccc(-c2ccnc(C(=O)N/N=C/c3cc(OC)cc(OC)c3)c2)cc1` ?
Result: < 5.00

Ask: What pIC50 value was documented for this compound, `CCCCOc1ccc(-c2cncc(C(=O)N/N=C/c3cc(OC)cc(OC)c3)c2)cc1` ?
Result: < 5.00

====

# Target Or Test System: UniProt Q15858
# Assay Comment: Automated whole-cell voltage-clamp (ScreenPatch 384P), Nav 1.7 sodium current, Protocol 1
# Type: cell-based
# Protocol Conditions: Protocol 1 (holding −90 mV, 0.1 Hz); CHO cells expressing human Nav 1.7; room temperature; read-out: Nav1.7 IC50
Measure: IC50

// solved cases for IC50 follow
> print(dat)
                                 cpd.smiles  target.or.test.system  value.observed
1  O=C(N/N=C/c1cccs1)c1cc(-c2ccc(Cl)cc2)ccn1         UniProt Q15858         > 10 µM
2  CCCCOc1ccc(-c2nccc(C(=O)N/N=C/c3cc(OC)cc(OC)c3)n2)cc1         UniProt Q15858         > 10 µM

Now turn to the next molecule.
Ask: What IC50 value was documented for this molecule, `CCOc1ccc(-c2nccc(C(=O)N/N=C/c3cc(OC)cc(OC)c3)n2)cc1` ?
Result: > 10 µM

====

# Target Or Test System: human sodium channels Nav 1.7 (Homo sapiens (Human))
# Assay Comment: Automated whole-cell voltage-clamp (ScreenPatch 384P), Nav 1.7 sodium current, Protocol 2
# Assay type: cell-based
# Protocol Conditions: Protocol 2 (holding −100 mV, inactivation step −40 mV 8 s, 0.05 Hz); CHO cells expressing human Nav 1.7; read-out: Nav1.7 IC50
# Protocol: Biological assays were performed on Chinese hamster ovary (CHO) cells expressing the human sodium channels Nav 1.8 and Nav 1.7 stably. […] Protocols were repeated at a frequency of 0.1 Hz (Protocol 1) or 0.05 Hz (Protocol 2) and current amplitude was quantified over the TP1A phase log. The variation in the peak amplitude of the current was evaluated according to the Formula described below, after exposure of the cells expressing the channels, at each concentration of the different compounds: […]
pIC50: −log10 of the molar value.
Measure: pIC50

// solved cases for pIC50 follow
> print(dat)
                                   compound  measure  value.observed
1  COc1ccc(-c2ccc(C(=O)N/N=C/c3cc(OC)cc(OC)c3)s2)cc1 [Compound 72]    pIC50          < 5.00
2  COc1ccc(-c2ncc(C(=O)N/N=C/c3cc(OC)cc(OC)c3)o2)cc1 [Compound 73]    pIC50          < 5.00

Now turn to the next compound.
Ask: What pIC50 value was documented for this compound, COc1ccc(-c2nc(C(=O)N/N=C/c3cc(OC)cc(OC)c3)co2)cc1 [Compound 74] ?
Result: < 5.00

====

# Target Or Test System: human sodium channels Nav 1.8 (Homo sapiens (Human))
# Sequence (Q9Y5Y9 whole entry): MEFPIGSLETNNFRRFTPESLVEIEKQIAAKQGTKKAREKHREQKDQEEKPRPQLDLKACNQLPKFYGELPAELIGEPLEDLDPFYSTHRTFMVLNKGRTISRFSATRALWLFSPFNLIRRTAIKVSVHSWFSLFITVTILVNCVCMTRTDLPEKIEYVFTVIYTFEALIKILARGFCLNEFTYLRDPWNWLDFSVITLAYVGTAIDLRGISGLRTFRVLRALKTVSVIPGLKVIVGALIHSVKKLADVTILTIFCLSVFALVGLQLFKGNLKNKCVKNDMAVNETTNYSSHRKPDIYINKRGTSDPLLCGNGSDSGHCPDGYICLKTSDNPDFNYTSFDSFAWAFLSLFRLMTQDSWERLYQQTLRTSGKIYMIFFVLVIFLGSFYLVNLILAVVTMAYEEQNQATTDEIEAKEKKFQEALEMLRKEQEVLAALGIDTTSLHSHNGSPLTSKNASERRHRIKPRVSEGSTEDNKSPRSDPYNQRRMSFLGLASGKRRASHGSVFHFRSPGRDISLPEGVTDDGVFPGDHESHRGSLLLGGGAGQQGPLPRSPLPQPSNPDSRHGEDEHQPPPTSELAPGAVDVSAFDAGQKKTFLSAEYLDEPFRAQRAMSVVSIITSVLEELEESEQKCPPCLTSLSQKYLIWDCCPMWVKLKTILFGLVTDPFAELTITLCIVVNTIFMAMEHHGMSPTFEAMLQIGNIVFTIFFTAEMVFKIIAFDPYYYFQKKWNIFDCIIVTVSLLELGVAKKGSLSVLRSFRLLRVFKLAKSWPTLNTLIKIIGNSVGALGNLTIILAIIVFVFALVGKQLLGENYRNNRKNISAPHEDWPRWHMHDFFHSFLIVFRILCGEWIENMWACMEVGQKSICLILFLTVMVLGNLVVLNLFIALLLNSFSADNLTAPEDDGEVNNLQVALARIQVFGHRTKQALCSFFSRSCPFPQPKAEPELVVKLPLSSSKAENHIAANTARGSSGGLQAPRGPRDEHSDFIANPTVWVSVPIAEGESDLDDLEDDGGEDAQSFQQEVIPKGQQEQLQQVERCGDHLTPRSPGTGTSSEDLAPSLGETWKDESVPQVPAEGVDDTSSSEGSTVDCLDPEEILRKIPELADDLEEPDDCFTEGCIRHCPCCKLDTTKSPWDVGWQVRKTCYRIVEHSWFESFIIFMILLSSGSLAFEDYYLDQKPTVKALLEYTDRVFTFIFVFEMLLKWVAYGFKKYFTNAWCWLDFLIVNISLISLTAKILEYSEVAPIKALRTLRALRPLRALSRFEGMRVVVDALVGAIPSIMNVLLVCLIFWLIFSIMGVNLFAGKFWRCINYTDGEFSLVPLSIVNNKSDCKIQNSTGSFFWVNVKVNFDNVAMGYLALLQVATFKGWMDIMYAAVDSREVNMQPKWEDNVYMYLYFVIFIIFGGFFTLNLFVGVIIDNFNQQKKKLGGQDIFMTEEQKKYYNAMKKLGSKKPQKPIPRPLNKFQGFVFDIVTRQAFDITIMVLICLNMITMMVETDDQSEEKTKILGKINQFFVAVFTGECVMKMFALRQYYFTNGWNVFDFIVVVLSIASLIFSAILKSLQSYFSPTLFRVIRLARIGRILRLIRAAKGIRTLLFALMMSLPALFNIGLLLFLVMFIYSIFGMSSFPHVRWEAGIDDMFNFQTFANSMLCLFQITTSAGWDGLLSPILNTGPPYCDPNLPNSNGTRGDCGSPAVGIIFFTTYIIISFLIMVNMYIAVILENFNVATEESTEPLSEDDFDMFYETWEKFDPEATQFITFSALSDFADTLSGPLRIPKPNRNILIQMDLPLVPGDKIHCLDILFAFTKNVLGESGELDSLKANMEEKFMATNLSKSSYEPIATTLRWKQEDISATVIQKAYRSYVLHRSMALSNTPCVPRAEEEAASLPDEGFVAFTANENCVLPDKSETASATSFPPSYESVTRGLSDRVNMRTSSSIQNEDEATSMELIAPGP
# Assay Comment: Automated whole-cell voltage-clamp (ScreenPatch 384P), Nav 1.8 sodium current, Protocol 1
# Type: cell-based
# Protocol Conditions: Protocol 1 (holding −90 mV, 0.1 Hz); CHO cells expressing human Nav 1.8; room temperature; read-out: Nav1.8 IC50
pIC50: −log10 of the molar value.
Each record here notes measured pIC50.

// solved cases for pIC50 follow
> print(dat)
                                 cpd.smiles  value.observed
1  COc1cc(/C=N/NC(=O)c2ccnc(-c3ccc(OC(C)C)cc3)c2)cc(OC)c1          < 5.00
2  CCOc1ccc(-c2cncc(C(=O)N/N=C/c3cc(OC)cc(OC)c3)c2)cc1            5.17
3  O=C(N/N=C/c1cccs1)c1cccc(-c2ccc(Cl)cc2)n1            5.07
4  CCOc1ccc(-c2ccnc(C(=O)N/N=C/c3cccs3)c2)cc1          < 5.00
5  COc1cc(/C=N/NC(=O)c2ccnc(-c3ccc(Cl)cc3)n2)cc(OC)c1          < 5.00

Ask: What pIC50 value was documented for this compound, `CCOc1ccc(-c2ccc(C(=O)N/N=C/c3cccs3)o2)cc1` ?
Result: < 4.52

Ask: What pIC50 value was documented for this compound, `CCOc1ccc(-c2cccc(C(=O)N/N=C/c3cccs3)n2)cc1` ?
Result: 5.49

Ask: What pIC50 value was documented for this compound, `CCOc1ccc(-c2nccc(C(=O)N/N=C/c3cc(OC)cc(OC)c3)n2)cc1` ?
Result: < 5.00

Ask: What pIC50 value was documented for this compound, `CCOc1ccc(-c2cccc(C(=O)N/N=C/c3ccccc3OC)n2)cc1` ?
Result: 5.07

Ask: What pIC50 value was documented for this compound, `CCOc1ccc(-c2cccc(C(=O)N/N=C/c3ccccc3F)n2)cc1` ?
Result: 5.87

Ask: What pIC50 value was documented for this compound, `COc1cc(/C=N/NC(=O)c2cc(-c3ccc(OC4CCCC4)cc3)ccn2)cc(OC)c1` ?
Result: < 5.00

Ask: What pIC50 value was documented for this compound, `COc1ccc(-c2cncc(C(=O)N/N=C/c3cc(OC)cc(OC)c3)c2)cc1` ?
Result: < 5.00

Ask: What pIC50 value was documented for this compound, `COc1cc(/C=N/NC(=O)c2ccnc(-c3ccc(OC(F)(F)F)cc3)n2)cc(OC)c1` ?
Result: < 5.00

Ask: What pIC50 value was documented for this compound, `O=C(N/N=C/c1cccs1)c1cc(-c2ccc(OC3CCCC3)cc2)ccn1` ?
Result: < 5.00

Ask: What pIC50 value was documented for this compound, `CC(C)Oc1ccc(-c2ccnc(C(=O)N/N=C/c3cccs3)c2)cc1` ?
Result: < 5.00

Ask: What pIC50 value was documented for this compound, `CCCCOc1ccc(-c2ccnc(C(=O)N/N=C/c3cc(OC)cc(OC)c3)n2)cc1` ?
Result: < 5.00

Ask: What pIC50 value was documented for this compound, `COc1cc(/C=N/N(C)C(=O)c2ccc(-c3ccc(Cl)cc3)o2)cc(OC)c1` ?
Result: < 4.52

Ask: What pIC50 value was documented for this compound, `O=C(N/N=C/c1cccs1)c1cc(-c2ccc(OC(F)(F)F)cc2)ccn1` ?
Result: < 5.00
